For each entry below, report its pKi value.
# MEASURED_TARGET: human factor VIIa (Homo sapiens, UniProt P08709)
# Sequence (P08709 213-466 limits assumed): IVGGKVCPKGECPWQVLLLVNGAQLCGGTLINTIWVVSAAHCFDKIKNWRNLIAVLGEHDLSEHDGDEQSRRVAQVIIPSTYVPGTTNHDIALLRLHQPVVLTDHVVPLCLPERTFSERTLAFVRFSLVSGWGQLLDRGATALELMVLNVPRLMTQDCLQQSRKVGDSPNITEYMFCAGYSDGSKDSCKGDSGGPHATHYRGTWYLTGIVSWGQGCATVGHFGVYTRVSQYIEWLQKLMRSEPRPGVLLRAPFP
# Sequence (P08709 61-212 limits assumed): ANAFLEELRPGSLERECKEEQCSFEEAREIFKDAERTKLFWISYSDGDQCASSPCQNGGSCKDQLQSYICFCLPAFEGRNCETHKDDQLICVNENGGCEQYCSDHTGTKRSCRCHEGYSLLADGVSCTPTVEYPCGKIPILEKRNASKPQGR
pKi: −log10 of the molar value. Structures can show the parent of a compound that is named as a salt.

INPUT: Given the molecule COCCCC(NC(=O)C1CCCN1C(=O)C(Cc1ccccc1)NCC(=O)O)B1OC2CC3CC(C3(C)C)C2(C)O1 (centres unmarked) , what is its reported pKi?
OUTPUT: > 4.30

INPUT: Look up pKi for this molecule: CC1(C)C2CC3OB(C(Cc4cccc(C#N)c4)NC(=O)[C@@H]4CCCN4C(=O)[C@H](N)Cc4ccccn4)OC3(C)C1C2 (some centres unmarked)
OUTPUT: > 6.30

INPUT: Sample CC1(C)C2CC3OB(C(Cc4cccc(C#N)c4)NC(=O)[C@@H]4CCCN4C(=O)[C@H](N)Cc4cccs4)OC3(C)C1C2 (some centres unmarked) — what was its pKi?
OUTPUT: > 6.30

INPUT: Given the molecule CC(=O)N[C@H](Cc1ccccc1)C(=O)N1CCC[C@H]1C(=O)N[C@@H](Cc1cccc(C#N)c1)B(O)O [Example 23, Ac--(D)Phe--Pro--boroPhe--(m-CN)--OH.HCl] , what is its reported pKi?
OUTPUT: > 6.30

INPUT: Quick check: pKi of CC(=O)NC(Cc1ccccc1)C(=O)N1CCCC1C(=O)NC(Cc1cccc(C#N)c1)B1OC2CC3CC(C3(C)C)C2(C)O1 (centres unmarked) ?
OUTPUT: > 6.30
